- system-under-test: Jak2 (UniProt O60674)
- Sequence (O60674 whole entry, looked up): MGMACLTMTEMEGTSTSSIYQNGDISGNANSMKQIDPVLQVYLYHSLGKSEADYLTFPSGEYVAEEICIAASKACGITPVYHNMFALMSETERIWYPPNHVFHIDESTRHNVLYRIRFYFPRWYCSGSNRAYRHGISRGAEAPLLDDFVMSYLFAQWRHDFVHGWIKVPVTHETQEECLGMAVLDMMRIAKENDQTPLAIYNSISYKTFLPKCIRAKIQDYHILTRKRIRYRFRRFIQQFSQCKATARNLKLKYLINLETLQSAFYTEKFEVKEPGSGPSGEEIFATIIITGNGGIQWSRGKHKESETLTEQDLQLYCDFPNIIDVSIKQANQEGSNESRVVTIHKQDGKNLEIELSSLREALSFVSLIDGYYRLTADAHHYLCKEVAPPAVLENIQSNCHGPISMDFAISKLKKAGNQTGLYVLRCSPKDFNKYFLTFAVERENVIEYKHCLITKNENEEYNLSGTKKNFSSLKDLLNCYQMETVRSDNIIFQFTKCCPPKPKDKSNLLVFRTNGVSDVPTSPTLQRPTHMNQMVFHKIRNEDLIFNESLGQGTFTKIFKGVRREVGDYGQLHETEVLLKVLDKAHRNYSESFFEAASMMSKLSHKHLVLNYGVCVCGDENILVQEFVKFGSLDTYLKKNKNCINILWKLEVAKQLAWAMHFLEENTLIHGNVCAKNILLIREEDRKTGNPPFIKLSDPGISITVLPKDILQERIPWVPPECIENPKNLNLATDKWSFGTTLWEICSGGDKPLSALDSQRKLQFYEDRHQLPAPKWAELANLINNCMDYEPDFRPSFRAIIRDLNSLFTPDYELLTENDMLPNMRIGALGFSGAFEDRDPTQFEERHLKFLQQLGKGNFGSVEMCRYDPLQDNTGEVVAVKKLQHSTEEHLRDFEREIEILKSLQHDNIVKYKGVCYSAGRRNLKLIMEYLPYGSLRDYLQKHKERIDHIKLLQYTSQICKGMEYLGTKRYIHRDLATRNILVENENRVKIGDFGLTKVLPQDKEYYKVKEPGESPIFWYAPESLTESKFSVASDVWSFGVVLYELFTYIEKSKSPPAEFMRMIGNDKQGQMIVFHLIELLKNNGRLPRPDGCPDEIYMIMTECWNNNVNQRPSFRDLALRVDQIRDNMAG
- protocol-text: phosphorylation enrichment, bacterial display (enrichment ratio); higher = better substrate or ligand; peptides without Tyr show the background;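 further: 11-residue human phosphosite peptides and single-mutation variants displayed on the E. coli surface, counted by deep sequencing, each peptide's frequency after selection divided by its frequency in the unselected input library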;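 further: frequency after pTyr selection over input frequency; kinase dosed for 20-30% of maximal phosphorylation in three min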
Listing: phosphorylation enrichment of selected sequences
Would you mind answering with just the numeric figure?

query-sequence: RAADFYSQQMA [GBP6_Y334_YF]
measurement: 1.16

query-sequence: MEVGQYFFVKC [CYBB_Y324_I325F]
measurement: 2.56

query-sequence: EGNEQYEGFCV [GRIA3_Y451_R450Q_YF]
measurement: 1.01

query-sequence: DEENFYQGSME [ASCC1_Y36_D34N]
measurement: 1.05

query-sequence: ITVPAYFNDSQ [HSPA9_Y196]
measurement: 1.02

query-sequence: NCLRQYVAGRF [CRB1_Y711_E710Q]
measurement: 0.62

INPUT: Need phosphorylation enrichment, item IINENYDYLKG [NUP98_Y1664]
OUTPUT: 0.803

INPUT: Please give the result for YIPSNYVAEDR [FRK_Y104] too.
OUTPUT: 0.721

INPUT: Please give the result for REGAKYVSHGA [ASS1_Y113] too.
OUTPUT: 0.47

INPUT: Please give the result for VVDVTYDDVPI [FLNB_Y1308_E1305D] too.
OUTPUT: 0.951

INPUT: Please give the result for DKANRYFSPNF [PTEN_Y336] too.
OUTPUT: 0.488

Values compiled from the supplement of paper PMC10065799.
